experimental.readout: ΔTm
Answer format: value, then unit.

**Query** So what ΔTm did "N#C/C(=C(/N)Sc1ccc(N)cc1)c1ccccc1C(F)(F)F" get with Calcium/calmodulin-dependent protein kinase type 1G (Homo sapiens) (UniProt Q96NX5)?
**Result** 0.2 °C

**Query** So what ΔTm did "O=C(O)c1cc(N(Cc2ccccc2O)Cc2cc(O)ccc2O)ccc1O" get with Calcium/calmodulin-dependent protein kinase type 1G (Homo sapiens) (UniProt Q96NX5)?
**Result** 0.2 °C

**Query** So what ΔTm did "COc1ccc(COc2ccc(Cc3cnc(N)nc3N)cc2OC)cc1" get with Calcium/calmodulin-dependent protein kinase type 1G (Homo sapiens) (UniProt Q96NX5)?
**Result** -0.2 °C

**Query** So what ΔTm did COc1ccc2c(c[n+](C)c3c4cc5c(cc4ccc23)OCO5)c1OC [CHELERYTHRINE CHLORIDE] get with Calcium/calmodulin-dependent protein kinase type 1G (Homo sapiens) (UniProt Q96NX5)?
**Result** -1.1 °C

**Query** So what ΔTm did O=C1NC(=O)c2c1c1c3ccccc3[nH]c1n1cncc21 [ISOGRANULATIMIDE] get with Calcium/calmodulin-dependent protein kinase type 1G (Homo sapiens) (UniProt Q96NX5)?
**Result** 3.4 °C

**Query** So what ΔTm did "O=S(=O)(NCCNC/C=C/c1ccc(Br)cc1)c1cccc2cnccc12" get with Calcium/calmodulin-dependent protein kinase type 1G (Homo sapiens) (UniProt Q96NX5)?
**Result** 0 °C

**Query** So what ΔTm did "Cc1cncc2cccc(S(=O)(=O)N3CCCNC[C@@H]3C)c12" get with Calcium/calmodulin-dependent protein kinase type 1G (Homo sapiens) (UniProt Q96NX5)?
**Result** -0.1 °C

**Query** So what ΔTm did "C=CNC#N" get with Calcium/calmodulin-dependent protein kinase type 1G (Homo sapiens) (UniProt Q96NX5)?
**Result** 0.4 °C

---

molecular target: Lymphokine-activated killer T-cell-originated protein kinase (Homo sapiens) (UniProt Q96KB5)
Sequence (Q96KB5 whole entry): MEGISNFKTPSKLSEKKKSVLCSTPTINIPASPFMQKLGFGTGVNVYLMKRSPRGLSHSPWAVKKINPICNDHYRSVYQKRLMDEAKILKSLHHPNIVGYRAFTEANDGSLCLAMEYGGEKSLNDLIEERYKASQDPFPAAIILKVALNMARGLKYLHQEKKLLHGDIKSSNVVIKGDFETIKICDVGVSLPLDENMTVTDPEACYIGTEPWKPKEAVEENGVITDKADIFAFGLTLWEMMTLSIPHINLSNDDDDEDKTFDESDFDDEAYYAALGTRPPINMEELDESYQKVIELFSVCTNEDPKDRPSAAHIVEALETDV
For each record, write down the corresponding ΔTm.

**Query** Given "COc1cc2ncnc(Nc3ccc(NC(=O)c4ccccc4)cc3)c2cc1OC" , state its recorded ΔTm.
**Result** 0.3 °C

**Query** Given "COc1ccc(CNC(=O)Nc2ncc([N+](=O)[O-])s2)cc1" , state its recorded ΔTm.
**Result** 0.3 °C

**Query** Given "C[C@@H](N)[C@H]1CC[C@H](C(=O)Nc2ccncc2)CC1" , state its recorded ΔTm.
**Result** 0.9 °C

**Query** Given "Cc1cc2ncc(-c3ccccc3)nc2cc1C" , state its recorded ΔTm.
**Result** -0.6 °C

**Query** Given "Ic1cccc(CSc2nnc(-c3ccncc3)o2)c1" , state its recorded ΔTm.
**Result** 0.3 °C

**Query** Given "COc1cc(O)c2c(c1)oc(=O)c1c3cc(O)c(O)cc3oc21" , state its recorded ΔTm.
**Result** 0 °C

**Query** Given "COc1cc(C[C@H]2C(=O)OC[C@@H]2Cc2ccc(OC)c(OC)c2)ccc1O" , state its recorded ΔTm.
**Result** -0.7 °C

**Query** Given "Nc1cc2ncnc(Nc3cccc(Br)c3)c2cc1N" , state its recorded ΔTm.
**Result** -0.2 °C

**Query** Given "NC(=O)c1ccc2[nH]c(-c3ccc(Oc4ccc(Cl)cc4)cc3)nc2c1" , state its recorded ΔTm.
**Result** 0.9 °C

**Query** Given "CC(=O)O/N=C1/C(=C2/C(=O)Nc3cc(Br)ccc32)Nc2ccccc21" , state its recorded ΔTm.
**Result** -0.3 °C

**Query** Given "CC(C)n1cnc2/c(=N/c3cccc(Cl)c3)nc(NCCO)[nH]c21" , state its recorded ΔTm.
**Result** -0.1 °C
